OBSERVABLE: melting point

Could you tell me which melting point is on file for `C=C(c1ccn[nH]1)c1ccc(OCC(=O)OCC)c(Cl)c1Cl` ?
110 to 112 °C

One more compound: `CCCCCCCCCCCCOC(=O)c1ccc2cc(O)ccc2c1`
103 to 104 °C

====

OBSERVABLE: melting point

Worked examples follow.
MOLECULE: O=C(C[C@H](NC(=O)C(F)(F)F)C(=O)O)c1ccc(F)cc1F
melting point: 82.4 to 84 °C

MOLECULE: COc1ccc(C(=O)Nc2ccc(C)c(NC(=O)c3cccc(N(C)C)c3)c2)cc1OC
melting point: 204 to 205 °C

MOLECULE: NC(=O)c1ccc(F)c(F)c1Cl
melting point: 142 to 143 °C

MOLECULE: O=[N+]([O-])c1ccc(F)c(CO)c1
melting point: 50 to 53 °C

# lookup: melting point of `CC(C)Oc1ccc(-c2nn(Cc3oc4cccc(F)c4c(=O)c3-c3cccc(F)c3)c3ncnc(N)c23)cc1F`
156 to 159 °C

Note, next up: `CC(=O)Nc1cccc(C2CCNCC2)c1`
102 to 104 °C

Okay, and `COC(=O)[C@H](Cc1ccc(-c2ccccc2)cc1)NC(=O)OC(C)(C)C` ?
83 to 85 °C

Please give the result for `CC(=O)Oc1cc(/C=C/c2ccccc2)cc(OC(C)=O)c1OC(C)=O` too.
119 to 120 °C

====

OBSERVABLE: melting point

Previously resolved entries follow.
MOLECULE: O=C(c1ccccc1)N1CCc2cc(S(=O)(=O)n3cc(-c4ccccc4)[nH]c3=O)ccc21
melting point: 167 to 170 °C
//
MOLECULE: COc1ccc2[nH]c(SCC3(N4CCCC4)NC=NC(N4CCCC4)=C3C)nc2c1 (stereo not given)
melting point: 104 to 106 °C
//
MOLECULE: CCCS(=O)(=O)c1sc(C(N)=O)c2c1-c1c(cnn1CC)CC2
melting point: 143 to 144 °C
//
MOLECULE: CCOc1ccc(C(=O)Nc2ccccc2)cc1[N+](=O)[O-]
melting point: 189 to 190 °C
//
MOLECULE: CN(Cc1ccc(NC(=O)C2=Cc3cc(OCc4cccnc4)ccc3S(=O)(=O)CC2)cc1)C1CCOCC1
melting point: 225 to 229 °C
//
MOLECULE: COc1ccc(I)c2c1CC(NC(C)=O)CC2 (stereo not given)
melting point: 190 °C
//
MOLECULE: CCCSc1nc2c(cc1C#N)C(=O)CC(C)(C)C2
melting point: 100 to 102 °C
//
MOLECULE: CC1(CN2CCN(c3cccccc3=O)CC2)NC(=O)NC1=O (stereo not given)
melting point: 231 to 232 °C

Now for a further molecule.
What value of melting point has been recorded for this entry: NC(=O)CCC(C(=O)O)N1C(=O)c2cccc([N+](=O)[O-])c2C1=O (stereo not given)
182 to 184 °C

====

OBSERVABLE: melting point

COMPOUND: CS(=O)(=O)Nc1cc(OC[C@@H](O)CNC2CCN(c3ccc(C#N)cc3)CC2)ccc1O
RESULT: 78 to 80 °C

COMPOUND: CC(c1oc2ccccc2c(=O)c1-c1cccc(F)c1)n1nc(-c2ccc3c(c2)OCCCO3)c2c(N)ncnc21 (stereo not given)
RESULT: 234 to 237 °C

COMPOUND: S=c1n(CCc2ccccc2)ccn1C1CCc2ccccc2C1 (stereo not given)
RESULT: 140 to 142 °C

COMPOUND: COC(=O)C(C)(C)OCc1cc2nc(Cl)ccc2n1S(=O)(=O)c1ccc(C(C)C)cc1
RESULT: 120 °C

Now for another entry.
May I ask what melting point has been recorded for CC(C)CCOC1CCC(=O)N1 (stereo not given) ?
73 to 75 °C
